B1: SERPINB5 (parent)
chain: FPESETKECPFRVNKVCGAACSSK

Variants of: B1
method_description: protein stability index of a GFP-peptide fusion (GPS, HEK-293T) (PSI 1-6); higher = more stable;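 further: lentivirally expressed fusions sorted by FACS into six bins by GFP to DsRed ratio, PSI derived from sequencing read proportions per bin multiplied by bin number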
condition_set: c terminus: a fixed tail appended
# protein stability index binned as 1 = under 2, 2 = from 2 up to 3, 3 = 3 and over

Below, 3 variants whose answers are already recorded.
S23H = 3
S4T = 3
K24V = 2

Given F11Q , name the class its protein stability index places it in.
3

Given S22E , name the class its protein stability index places it in.
2

Given E3L , name the class its protein stability index places it in.
1

Given K15W , name the class its protein stability index places it in.
1

Given A19M , name the class its protein stability index places it in.
2

Given S4D , name the class its protein stability index places it in.
3

Given A19P , name the class its protein stability index places it in.
2
